Counter-ions that a name gives are not always drawn.
metric_name: melting point

molecule	melting point
CCNC(=O)c1ccnc(OCCCN2CCN(c3cccc4sccc34)CC2)c1 (as salt: hydrochloride)	140 to 141.5 °C

# input molecule: CNC(=O)c1ccc(OC)c(OCCCN2CCN(c3cccc4sccc34)CC2)c1 (as salt: hydrochloride) ; wanted: its melting point 163.5 to 165 °C

# input molecule: CCNC(=O)c1ccc(OCCCN2CCN(c3cccc4sccc34)CC2)nc1 (as salt: hydrochloride) ; wanted: its melting point 201.5 to 207.5 °C

# input molecule: "COc1cc(NC(=O)CNC(C)=O)cc(C)c1OCCCN1CCN(c2cccc3sccc23)CC1" ; wanted: its melting point 167.5 to 170.5 °C

# input molecule: "COC(=O)c1cc(OCCCN2CCN(c3cccc4sccc34)CC2)n(C)n1" ; wanted: its melting point 109 to 110.5 °C

# input molecule: "CNc1cc(C)c(OCCCN2CCN(c3cccc4sccc34)CC2)c(OC)c1.Cl" ; wanted: its melting point 239.5 to 244 °C (dec.)

* * *

# subject_of_test: Dopamine D2 receptor (Rattus norvegicus, UniProt P61169)
# Sequence (P61169 whole entry): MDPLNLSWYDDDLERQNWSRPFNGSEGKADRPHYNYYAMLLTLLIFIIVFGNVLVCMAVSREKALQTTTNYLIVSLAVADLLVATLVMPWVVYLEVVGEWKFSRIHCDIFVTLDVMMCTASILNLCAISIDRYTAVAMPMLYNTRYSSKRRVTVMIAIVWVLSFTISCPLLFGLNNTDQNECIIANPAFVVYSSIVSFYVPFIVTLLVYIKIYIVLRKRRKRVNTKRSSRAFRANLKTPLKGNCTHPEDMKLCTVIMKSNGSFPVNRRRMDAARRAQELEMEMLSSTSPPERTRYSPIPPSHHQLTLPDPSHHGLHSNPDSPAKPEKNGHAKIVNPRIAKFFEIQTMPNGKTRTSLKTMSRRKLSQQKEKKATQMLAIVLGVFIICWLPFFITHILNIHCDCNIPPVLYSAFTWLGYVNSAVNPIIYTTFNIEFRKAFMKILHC
# assay_name: Dopamine D2 receptor binding assay ([3H]-raclopride)
# condition_set: Dopamine D2 receptor binding test, rat corpus striatum membrane, Ki calculated from IC50 by Cheng-Prussoff formula
metric_name: pKi
Just the number, please; pKi means minus log10 of the concentration in mol/L.

compound	subject_of_test	metric_name	val
c1cc(N2CCN(CCCOc3ccc(CN4CCOCC4)cc3)CC2)c2ccsc2c1 [Example 313]	Dopamine D2 receptor (Rattus norvegicus, UniProt P61169)	pKi	9.15
COC(=O)N1CCN(c2cc(C)c(OCCCN3CCN(c4cccc5sccc45)CC3)c(OC)c2)C(=O)C1 [Example 1080]	Dopamine D2 receptor (Rattus norvegicus, UniProt P61169)	pKi	9.22
O=C1NCc2ccc(OCCCCN3CCN(c4cccc5sccc45)CC3)cc2N1 [Example 146]	Dopamine D2 receptor (Rattus norvegicus, UniProt P61169)	pKi	10.00
COc1cc(C(N)=O)ccc1OCCCN1CCN(c2cccc3sccc23)CC1 [Example 190]	Dopamine D2 receptor (Rattus norvegicus, UniProt P61169)	pKi	8.92
Cn1cnc2cc(OCCCN3CCN(c4cccc5sccc45)CC3)ccc21 [Example 121]	Dopamine D2 receptor (Rattus norvegicus, UniProt P61169)	pKi	8.96
Cc1cc(=O)oc2cc(OCCCN3CCN(c4cccc5sccc45)CC3)ccc12 [Example 115]	Dopamine D2 receptor (Rattus norvegicus, UniProt P61169)	pKi	8.80

# input compound: CCN(CC)CCNC(=O)c1ccc(OCCCN2CCN(c3cccc4sccc34)CC2)cc1 [Example 160] ; wanted: its pKi 9.40

# input compound: COc1cc(N2CCCC2=O)cc(CO)c1OCCCN1CCN(c2cccc3sccc23)CC1 [Example 359] ; wanted: its pKi 9.70

* * *

# subject_of_test: Dopamine D2 receptor (Rattus norvegicus, UniProt P61169)
# assay_name: Dopamine D2 receptor binding assay ([3H]-raclopride)
# condition_set: Dopamine D2 receptor binding test, rat corpus striatum membrane, Ki calculated from IC50 by Cheng-Prussoff formula
Kindly apply the following: condition met if Ki is less than 1 nM, condition not met in every other case.

Solved cases below.
compound	subject_of_test	cat
NS(=O)(=O)c1ccc(OCCCN2CCN(c3cccc4sccc34)CC2)cc1	Dopamine D2 receptor (Rattus norvegicus, UniProt P61169)	condition not met
CNC(=O)c1cc(OCCCN2CCN(c3cccc4sccc34)CC2)n(C)n1.Cl [Example 3, hydrochloride]	Dopamine D2 receptor (Rattus norvegicus, UniProt P61169)	condition not met
O=C1CCc2ccc(OCCCN3CCN(c4cccc5sccc45)CC3)cc21	Dopamine D2 receptor (Rattus norvegicus, UniProt P61169)	condition not met
CC1Oc2ccc(OCCCCN3CCN(c4cccc5sccc45)CC3)cc2NC1=O (centres unmarked)	Dopamine D2 receptor (Rattus norvegicus, UniProt P61169)	condition met
Cn1c(=O)oc2cc(OCCCN3CCN(c4cccc5sccc45)CC3)ccc21	Dopamine D2 receptor (Rattus norvegicus, UniProt P61169)	condition not met

Please check: Ki for "COc1cc(C(=O)NCC(OC)OC)cc(C)c1OCCCN1CCN(c2cccc3sccc23)CC1" , strictly under 1 nM or not? condition met

Please check: Ki for "CNC(=O)c1ccc(OCCCN2CCN(c3cccc4sccc34)CC2)c(N)c1" , strictly under 1 nM or not? condition not met

Please check: Ki for "O=C1CCCc2ccc(OCCCN3CCN(c4cccc5sccc45)CC3)cc2N1" , strictly under 1 nM or not? condition not met

All figures here come from patent US8071600B2.
